Listing: inhibition of selected compounds
assay: growth inhibition of BT084 medulloblastoma cells, cell-based, ICGC_MB145, cisplatin and BGB IC40 combos (AID 1671461); conditions: drug combinations, measured here: BGB IC40 combination 0.05 uM, at 0.05 µM, stronger effect = higher value;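 note: cells exposed to drugs for 96 hours; 0% = vehicle DMSO and 100% = high DMSO full killing control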
Number first, unit second.

Example entries begin here.
Cn1c(CCCC(=O)O)nc2cc(N(CCCl)CCCl)ccc21: -6.48%
O=P(O)(NCCCl)NCCCl: -21.5%
O=C1CCC[C@@H]2[C@H]3CCCN4CCC[C@@H](CN12)[C@@H]34: -11%
COc1cc(C2c3cc4c(cc3C(O)C3COC(=O)C23)OCO4)cc(OC)c1OC (stereo unspecified): 22.9%
O=c1[nH]c(=O)n(C2OC(CO)C(O)C2O)cc1F (stereo unspecified): 2.24%

Let us examine a further case.
Q: For the compound O=C(O)CCCc1ccc(N(CCCl)CCCl)cc1 , what inhibition is on record?
A: 37.2%

====

test: sensitizers of A549 cells to miR-34 induction, primary screen, imaging, A549 dox-inducible miR-34, nuclei and caspase counts (AID 1347080); settings: A549 miR-34 inducible, Hoechst nuclei count, 48 h; measured here: relative caspase fold change +Dox/-Dox
Doc: threshold 1 (exclusive). Items with fold change beneath it return Y; others return N.

Q: Is fold change strictly under 1 for the entry C#C[C@@]1(O)C=C[C@H]2[C@@H]3CCC4=CC(=O)CC[C@@H]4[C@@H]3CC[C@@]21CC ?
A: N

Q: Can you check CO[C@H]1CC=C2CCN3CCC4=C(CC(=O)OC4)[C@]23C1 next?
A: N

Q: Can you check CC(C)Oc1cccnc1N(C)C1CCN(Cc2ccccc2)CC1 next?
A: N

Q: Can you check CCCN(CCC)[C@@H]1CCc2c(OC)cccc2[C@@H]1C next?
A: Y

Q: Can you check CCNC(=O)[C@H]1O[C@@H](n2cnc3c(N)ncnc32)C(O)[C@H]1O (stereo not given in full) next?
A: N

====

system: Aerobactin synthetase IucA (Klebsiella pneumoniae hvKP1); assay: Biochemical IucA enzyme inhibition primary screen of the Spectrum library (AID 1346200); conditions: malachite green pyrophosphate, A620, at 8 µM, stronger effect = lower value;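 note: 100% = wells without compound and 0% = wells lacking enzyme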
Measurement Label: activity remaining (%)
Response body: numeric value in %, unit text excluded.

Example entries begin here.
CC(=O)Nc1nnc(S(N)(=O)=O)s1: 103
CC(=O)O[C@H]1C(=O)[C@@]2(C)C([C@H](OC(=O)c3ccccc3)[C@]3(O)C[C@H](O)C(C)=C1C3(C)C)[C@]1(OC(C)=O)CO[C@@H]1C[C@@H]2O (some centres not stated): 96.8
CO/N=C(/C(=O)N[C@@H]1C(=O)N2C(C(=O)O)=C(CSc3nc(=O)c(O)nn3C)CS[C@H]12)c1csc(N)n1: 110

Q: For the compound COC(=O)C[C@H]1C(C)(C)C(=O)[C@@H]2CC3=C4CC(=O)O[C@@H](c5ccoc5)[C@]4(C)CCC3C1(C)C2=O (some centres not stated) , what activity remaining is on record?
A: 102

Q: Can you check CCn1cc(C(=O)O)c(=O)c2cc(F)c(N3CCNCC3)cc21 next?
A: 115

Q: Can you check O=C(O)c1ccccc1C(=O)Nc1ccc(S(=O)(=O)Nc2nccs2)cc1 next?
A: 98.2
